B1: mRNA-splicing (parent)
chain: GAUCCAGAUCUAACUUGGGGUGGCUUUGUCUUCUUCUUUUGCCAAUUCCACUAAUUGUUUGGG

variants of: B1; assay: exon inclusion enrichment score (log2 ratio to wild type); higher = more inclusion; FAS exon 6 minigene, HEK293
ASSAY ENDPOINT: exon inclusion enrichment score

>>> observed("GAUCCAGAUCUAACUUGGGGUGGCUUUGCCUUCUUCUUUUGCCAAUUCCACUAAUUGUUUGGG [U29C]")
0.119
>>> observed("GAUCCAGAUCUAACUUGGGGUGGCUUUGUCUUCUUCUUUCGCCAAUUCCACUAAUUGUUUGGG [U40C]")
0.287
>>> observed("GAUCCAGAUCUAACUUGGGGUGGCUUUGUCUUCUUCUUUUGCCAAGUCCACUAAUUGUUUGGG [U46G]")
0.344
>>> observed("GAUCCAGAUCUAACUUGGGGUGGCUUUGUCUUCUUCUUUUGCCAACUCCACUAAUUGUUUGGG [U46C]")
0.336
>>> observed("GAUCCAGAUCUAACUUGCGGUGGCUUUGUCUUCUUCUUUUGCCAAUUCCACUAAUUGUUUGGG [G18C]")
0.301
>>> observed("GAUCCAGAUCUAACUUGGGGUGGCUUCGUCUUCUUCUUUUGCCAAUUCCACUAAUUGUUUGGG [U27C]")
0.72
>>> observed("GAUCCAGAUCUAACUUGGGGUGGCUUUGUCUUCAUCUUUUGCCAAUUCCACUAAUUGUUUGGG [U34A]")
-0.179
>>> observed("GAUCCAGAUCUAACUUGGGGUGACUUUGUCUUCUUCUUUUGCCAAUUCCACUAAUUGUUUGGG [G23A]")
0.238
>>> observed("GAUCCAGAUCUAACUUGGGGUGGCUUUGUCUUCUUCUUUUGCCAAUUCCACAAAUUGUUUGGG [U52A]")
0.166
>>> observed("GAUCCAGAUCUACCUUGGGGUGGCUUUGUCUUCUUCUUUUGCCAAUUCCACUAAUUGUUUGGG [A13C]")
1.26
>>> observed("GAUCCAGAUCUAACUUGGGGUGGCUUUGUCUUCUUCUUUUGCCAAUUCAACUAAUUGUUUGGG [C49A]")
1.46
>>> observed("GAUCCAGAUCUAACUUGGGGUGGCUUUGUCUUCUUCUUUUGCCAAUUCCACUAAUGGUUUGGG [U56G]")
0.059
>>> observed("GAUCCAGAUCUAACUUGGGGUGGCUGUGUCUUCUUCUUUUGCCAAUUCCACUAAUUGUUUGGG [U26G]")
-0.547
>>> observed("GAUCCAGAUCUAACUUGGGGUGGCUUUGUCUUCUUCUUUUGCCAAUUCCACUAAUUGUUUAGG [G61A]")
-1.32
>>> observed("GAUCCAGAUCUAACUUGGGGUGGCUUUGUCUUCUUCUUUUGCCAAUUCCACUAAGUGUUUGGG [U55G]")
0.117
